The measured values listed here are drawn from PubChem BioAssay (NCI).

System: CCRF-CEM leukemia
Assay: NCI tumour cell line growth inhibition, 48 h
reported_endpoint: TGI

Solved cases (5 shown):
c1cncc(CNc2ccccc2-c2nnc(Nc3ccc4c(c3)OCCO4)o2)c1: 51.4 µM
C=C1C(C[C@@H]2O[C@H]3C[C@H]4O[C@@]5(C[C@@H]6O[C@]7(C[C@H](C)[C@@H]8O[C@@H]9CC(C(O)CO)O[C@@H]9C[C@@H]8O7)C[C@H](C)[C@@H]6O5)C[C@H]4O[C@H]3[C@H](C)[C@H]2O)O[C@@H](CC[C@@H]2O[C@@H](CC[C@@]34CC5O[C@H]6C(O[C@H]7CC[C@H](CC(=O)OC)O[C@@H]7[C@@H]6O3)[C@H]5O4)CC2=C)C[C@H]1C (stereo partly drawn): > 1 µM
CCCN(CCC)C(=O)Cc1c2n(c3ccccc13)Cc1ccccc1-2: > 100 µM
O=c1[nH]nc2c3c(cccc13)NC(CN1Cc3ccccc3C1)=N2: > 100 µM
COc1cc(-c2cc(-c3nc4ccccc4[nH]3)[nH]n2)cc(OC)c1OC: 9.96 µM

Look at each compound and report its TGI.
1. COc1cc2c(OC)c(c1)CCCC1=CC(=O)C=C(CCC2)C1=O
2. Cc1nn2c(/C=C3/C(=O)Nc4ccccc43)c(-c3ccc(Cl)cc3)nc2s1
3. Cc1cc(-c2nc3ccc(O)cc3s2)ccc1N

**Result**
["20.1 µM", "> 50 µM", "> 100 µM"]
